B1: Twister Ribozyme (parent)
chain: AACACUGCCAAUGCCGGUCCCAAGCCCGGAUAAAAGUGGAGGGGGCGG

variants of: B1; experiment: self-cleavage, relative activity (ratio to wild type); higher = more cleavage; co-transcriptional
Give self-cleavage for every item shown.

Example entries and their recorded answers appear below.
mutations	self-cleavage
A10U G45C	0.707
U18G A34C	0.0636
G16C G29A	0.222
A30C G41A	0.133
U6G C19G	0

List reported self-cleavage for each of these variants:
1. G28U G44C
2. C14U C46A
3. C27G U31C
4. G39A G45A
5. G7A C15U
6. A30G G38A
7. G24A C25U

Out:
[0.782, 1.05, 0.072, 0.418, 0.377, 0.853, 0.0836]

Could I get self-cleavage for every one of these entries?
1. C15U G24U
2. A11C C21A
3. G16C G38A
4. C14G G47U
5. G36C C46A
6. G38U G39C

Out:
[0.122, 0.0812, 0.676, 0.0804, 0.367, 0.14]

Quick batch: self-cleavage for everything below.
1. C9U G43U
2. G13U G42U
3. A2G A35G
4. C19A A32U

Out:
0.126
0.114
0.226
0.189
